Kindly state inhibition for each of the entries shown.
Molecular target: recombinant human 17β-hydroxysteroid dehydrogenase type 1 (Homo sapiens, UniProt P14061)
Construct: made in house; host or cells: Sf9 insect cells (baculovirus, Bac to Bac Expression System)
Sequence (P14061 whole entry): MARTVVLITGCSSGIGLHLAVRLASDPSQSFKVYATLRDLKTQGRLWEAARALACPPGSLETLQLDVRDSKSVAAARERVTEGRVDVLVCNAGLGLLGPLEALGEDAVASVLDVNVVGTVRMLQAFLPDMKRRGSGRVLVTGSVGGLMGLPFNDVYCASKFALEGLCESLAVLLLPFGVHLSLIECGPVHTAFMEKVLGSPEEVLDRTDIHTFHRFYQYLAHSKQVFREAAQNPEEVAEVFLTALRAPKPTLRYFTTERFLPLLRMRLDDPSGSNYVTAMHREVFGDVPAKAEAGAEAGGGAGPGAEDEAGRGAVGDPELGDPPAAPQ
Experiment: Inhibition of recombinant human 17β-hydroxysteroid dehydrogenase type 1 (conversion of 3H-estrone to estradiol, HPLC radiodetection)
Assay type: biochemical
Details: inhibitor 1 µm; 30 nM 3H-estrone, 1 mM NADPH, 30 min at RT; read-out: Inhibition of rec 17β-HSD1
Numbers only, in %.

Please review the entries below; each comes with its answer.
For the compound shown here, `CCCc1cc2c(cc1O)CC[C@H]1[C@@H]3[C@H](CCCC(=O)N4CCCCC4)CC(=O)[C@@]3(C)CC[C@H]21` , give the reported inhibition.
78.1

For the compound shown here, `CCCc1cc2c(cc1O)CC[C@H]1[C@@H]3[C@H](CCCC(=O)N4CCOCC4)CC(=O)[C@@]3(C)CC[C@H]21` , give the reported inhibition.
79.3

For each of the compounds below, state inhibition.
1. CCCc1cc2c(cc1O)CC[C@H]1[C@@H]3[C@H](CCCC(=O)NCCc4c[nH]c5c(C)cccc45)CC(=O)[C@@]3(C)CC[C@H]21
2. Cc1cnc(NC(=O)CC[C@@H]2CC(F)(F)[C@@]3(C)CC[C@@H]4c5ccc(O)cc5CC[C@H]4[C@H]23)s1
3. C[C@]12CC[C@@H]3c4ccc(O)cc4CC[C@H]3[C@@H]1[C@H](CCC(=O)NC1CC1)CC2(F)F
4. CCOc1cc2c(cc1O)CC[C@H]1[C@@H]3[C@@H](CCCC(=O)NCCc4c[nH]c5c(C)cccc45)CC(=O)[C@@]3(C)CC[C@H]21

1: 71.9; 2: 86.7; 3: 85; 4: 72.2
